Experiment: NOVARTIS: Cytotoxicity against human hepatocellular carcinoma cell line (Huh7)
Type: toxicity, cell-based, Huh-7
Conditions: Huh7 cells (hepatocellular carcinoma cell line)
quantityKind: CC50

These solved cases illustrate the format of a correct answer.
CC(=NNC(N)=S)C(C)=NNC(N)=S: > 100 µM
Cc1cc(C)cc(OCC(=O)N2N=C(C(C)C)CC2(O)C(F)(F)F)c1 (stereo not drawn): > 10 µM

Let's switch to this compound now.
## Task Give CC50 for the following compound: CCCCN(C(=O)Nc1ccc(OCC)cc1)C(C)c1nc2ccccc2c(=O)n1-c1ccc(F)c(Cl)c1 (stereo not drawn)
## Result > 10 µM

Origin of values: ChEMBL document CHEMBL1156829
